# experiment: splicing luciferase reporter signal modulators, primary screen, spliceosome inhibition project, cell-based, HEK293, splice +/- reporter (AID 1101);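 also: HEK293 cells carrying a splicing-competent luciferase reporter gene; test concentration not given here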
# condition.description: luminescence, 24 h, higher = more signal, called active from +8 up or from −8 down
value.kind: z-score

compound=Cc1ccc(S[C@]2(C(=O)NC3CC3)CC(=O)N(C3Cc4ccccc4C3)[C@@H]2c2ccc(CO)cc2)cc1 reported=-0.983
compound=COc1cc2c(cc1OC)CN(C(=O)[C@H]1[C@@H]3C(=O)O[C@@H](c4ccccc4)[C@@H](c4ccccc4)N3[C@@H](c3ccc(O)cc3)[C@]13C(=O)Nc1ccc(C#CCNC(N)=O)cc13)CC2 reported=-0.996
compound=O=C1O[C@H](c2ccccc2)[C@H](c2ccccc2)N2[C@H]1[C@@H](C(=O)O)[C@]1(C(=O)Nc3ccc(C#CC4=CCCCC4)cc31)[C@H]2c1ccccc1OCCO reported=-0.246
compound="COc1ccc(C(O)C2C=CC3C(=O)NC(=O)C3N2Nc2ccccn2)c2ccccc12 (configuration not stated)" reported=0.841
compound=COCCOC(=O)N1C(=O)[C@@]2(c3ccccc31)[C@H](c1ccc(O)cc1)N1[C@H](c3ccccc3)[C@H](c3ccccc3)OC(=O)[C@H]1[C@@H]2C(=O)NC[C@H](O)c1ccccc1 reported=-1.07
compound="COc1cc2c(cc1O)C(C1CC1)N(Cc1cc3c(cc1Br)OCO3)CC2 (configuration not stated)" reported=-0.39
compound=COCCn1c(C(=O)N2CCCC2)cc2c1C[C@H]1CN(C(=O)c3ccccc3)[C@@](Cc3ccc(F)cc3)(C(=O)OC)[C@@H]21 reported=-0.604
compound=COc1cc2c(cc1OC)CN(C(=O)[C@@H]1[C@H]3C(=O)O[C@H](c4ccccc4)[C@H](c4ccccc4)N3[C@H](c3ccc(O)cc3)[C@@]13C(=O)Nc1ccc(C#CC4(O)CCCCCC4)cc13)CC2 reported=0.263
compound="OC([C@@H]1CC(c2ccccc2)=NO1)[C@H]1CC(c2ccccc2)=NO1 (some centres not stated)" reported=-0.247
compound=COC(=O)[C@@]1(Cc2ccccc2)[C@H]2c3cc(C(=O)N4CCCC4)n(CC4CC4)c3C[C@H]2CN1C(=O)c1ccccc1 reported=-2.08
compound=COc1ccc([Si](C)(C)[C@@H]2[C@@H](CCO)O[C@]3(C(=O)N(Cc4ccc(N5C(=O)COc6ccccc65)cc4)c4ccccc43)[C@H]2C)cc1 reported=-1.68
compound=NCCCCCNC(=O)[C@@H]1C[C@@H]2C(=O)NCC(=O)N2[C@@H]1c1ccc(O)cc1 reported=-0.0882
compound=COCC(=C=CC[C@@H](O)c1ccccc1OCCO)C[C@@H](O)c1cc(Cl)cc(Cl)c1O reported=-0.458
compound=O=C1O[C@H](c2ccccc2)[C@H](c2ccccc2)N2[C@H]1[C@@H](C(=O)Nc1nc3ccccc3s1)[C@]1(C(=O)Nc3ccc(C#CCCO)cc31)[C@H]2c1ccc(OCCO)cc1 reported=-0.0209
compound=C#CCN(CC1=CCCCC1)[C@H](c1ccccc1Br)[C@@H](O)Cc1ccccc1 reported=-1.37
compound="CN1C(=O)C2C=CC(C(O)C3=C[C@H]4C[C@@H](C3)C4(C)C)N(Nc3ccccc3)C2C1=O (some centres not stated)" reported=0.757
compound=CCOC(=O)[C@H]1C/C=C/C[C@H](C(=O)OCC)C(=O)O[C@H]2[C@@H](OC)O[C@H](CO)[C@@H](OC(=O)Nc3cccc(F)c3)[C@@H]2OC1=O reported=0.68
compound="CS(=O)(=O)CCOC(=O)C1=CC(CCCO)=CC(c2ccc(CN3CCCC3)cc2)N(Cc2cc3c(cc2Br)OCO3)C=C1C(=O)OCCS(C)(=O)=O (configuration not stated)" reported=-0.9
compound=COCCCN1C(=O)[C@@]2(c3ccc([N+](=O)[O-])cc3)CC(=O)N(C3CCCCC3)[C@@H]2c2ccc(CO)cc21 reported=-0.237
compound=CCOC(=O)C[C@H]1[C@H](OC(=O)c2ccc(C(=O)c3ccccc3)cc2)[C@@H](NC(=O)c2ccc(-c3ccccc3)cc2)c2cc(OCCCO)ccc2N1C(=O)c1ccccc1 reported=0.475
compound="O=C1OCCC=C[C@H]2OC34C=CCN(CCN5CCOCC5)C(=O)[C@H]3N(CCCCCCO)C(=O)[C@@H]4C12 (some centres not stated)" reported=0.418
compound="COC(=O)C=C(CC(O)c1cccc(Cl)c1)OC (configuration not stated)" reported=-1.12
compound=COCCOC(=O)N1C(=O)[C@@]2(c3cc(C#Cc4ccc(OC)cc4)ccc31)[C@H](C(=O)N1CCCCCCC1)[C@H]1C(=O)O[C@H](c3ccccc3)[C@H](c3ccccc3)N1[C@@H]2c1ccc(OCCO)cc1 reported=-0.16
compound=C=CCOC(=O)[C@@H]1[C@H]2C(=O)O[C@H](c3ccccc3)[C@H](c3ccccc3)N2[C@H](c2ccc(OCCOC(=O)[C@@H]3C[C@@H]4C(=O)N[C@@H](Cc5ccccc5)C(=O)N4[C@@H]3c3ccc(O)cc3)cc2)[C@@]12C(=O)Nc1ccc(I)cc12 reported=-1.17
compound="CC(C)C(CO)N1C(=O)[C@@H]2[C@H]3C(=O)OCC=C[C@H]3OC23C=CCN(C(C)C)C(=O)[C@@H]13 (some centres not stated)" reported=0.181
compound=C=CCNC(=O)[C@H]1[C@@H]2C(=O)O[C@@H](c3ccccc3)[C@@H](c3ccccc3)N2[C@@H](c2ccc(OCCO)cc2)[C@]12C(=O)Nc1ccc(C#CC3=CCCCC3)cc12 reported=-1.24
compound=COc1ccc(CCNC(=O)[C@@]2(Sc3ccc(C)cc3)CC(=O)N(C3CCCCC3)[C@@H]2c2ccc(CO)cc2I)cc1 reported=0.451

Data credit: PubChem BioAssay
